tested on: Myzus persicae; test: mortality of aphids (MP), contact test; format: in vivo, Myzus persicae (aphids); settings: Myzus persicae, 48 h, 500 ppm, leaf, 2 days, read-out: grading of mortality, MP
Quick reference for mortality at 500 ppm among some compounds

Observed mortality at 500 ppm, Myzus persicae, CC(C)(C=Cc1ccccc1)COCc1ccc(F)c(Oc2ccccc2)c1 : 80 to 100%

Observed mortality at 500 ppm, Myzus persicae, CC(C)(C=Cc1ccc(F)cc1)COCc1cccc(Oc2ccccc2)c1 : < 50%

Observed mortality at 500 ppm, Myzus persicae, CC(C)(C=Cc1cc(Cl)cc(Cl)c1)COCc1cccc(Oc2ccccc2)c1 : < 50%

Observed mortality at 500 ppm, Myzus persicae, CCOc1ccc(CCC(C)(C)COCc2cccc(Oc3ccccc3)c2)cc1 : < 50%

====

test system: Myzus persicae; test: mortality of aphids (MP), contact test; assay type: in vivo, Myzus persicae (aphids); details: Myzus persicae, 48 h, 500 ppm, leaf, 2 days, read-out: grading of mortality, MP
Quick reference for mortality at 500 ppm among some compounds

See these solved cases before continuing.
CC(C)(/C=C\c1ccc(F)cc1)COCc1ccc(F)c(Oc2ccccc2)c1; < 50%
Cc1ccc(C=CC(C)(C)COCc2ccc(F)c(Oc3ccccc3)c2)cc1; 80 to 100%
CC(C)(C=Cc1cccc(F)c1)COCc1cccc(Oc2ccccc2)c1; < 50%
CC(C)(/C=C\c1ccc(Cl)cc1)COCc1cccc(Oc2ccccc2)c1; < 50%
CC(C)(C=Cc1ccc(F)c(F)c1)COCc1cccc(Oc2ccccc2)c1; < 50%

Could you now consider this next compound?
Entry under test: CC(C)(C=Cc1ccc(Cl)cc1)COCc1ccc(F)c(Oc2ccccc2)c1 . Its mortality at 500 ppm was 80 to 100%
